B1: glmS ribozyme (parent)
chain: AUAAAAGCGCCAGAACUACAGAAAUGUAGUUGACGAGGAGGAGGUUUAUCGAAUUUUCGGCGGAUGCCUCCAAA

Variants of: B1
Assay: self-cleavage kobs at 640 uM GlcN6P; higher = faster cleavage; RNA array
Settings: with glucosamine-6-phosphate
Variants at the floor of the assay were thinned out.
Recorded self-cleavage kobs at 640 uM GlcN6P, one value per entry.

>  <mutationAnnotation>
A42C G44U A64G C68G

>  <self-cleavage kobs at 640 uM GlcN6P>
< 1e-05 s⁻¹

$$$$
>  <mutationAnnotation>
U30C A42G

>  <self-cleavage kobs at 640 uM GlcN6P>
0.00012 s⁻¹

$$$$
>  <mutationAnnotation>
U46G U57C

>  <self-cleavage kobs at 640 uM GlcN6P>
< 1e-05 s⁻¹

$$$$
>  <mutationAnnotation>
A48U G62U C70U

>  <self-cleavage kobs at 640 uM GlcN6P>
< 1e-05 s⁻¹

$$$$
>  <mutationAnnotation>
G29U U30A U31G A53U

>  <self-cleavage kobs at 640 uM GlcN6P>
7.01e-05 s⁻¹

$$$$
>  <mutationAnnotation>
C8G C10A G41A

>  <self-cleavage kobs at 640 uM GlcN6P>
< 1e-05 s⁻¹

$$$$
>  <mutationAnnotation>
G40C G63A

>  <self-cleavage kobs at 640 uM GlcN6P>
< 1e-05 s⁻¹

$$$$
>  <mutationAnnotation>
A33U C67U

>  <self-cleavage kobs at 640 uM GlcN6P>
3.39e-05 s⁻¹

$$$$
>  <mutationAnnotation>
A28G U30G C67U C71U

>  <self-cleavage kobs at 640 uM GlcN6P>
7.62e-05 s⁻¹

$$$$
>  <mutationAnnotation>
C58G G62A G63C C71A

>  <self-cleavage kobs at 640 uM GlcN6P>
5.92e-05 s⁻¹

$$$$
>  <mutationAnnotation>
G13U C67U

>  <self-cleavage kobs at 640 uM GlcN6P>
8.78e-05 s⁻¹

$$$$
